Where do the numbers come from? From patent US11236122B2.

- test_description: Cytotoxicity assay CellTitre-Blue, HUT-R5
- Type: cell-based
- applied_conditions: human, HUT-R5 cells, read-out: Cytotoxicity CC50 HUTR5
- Procedure: Cytotoxicity assays. Cytotoxicity assays were performed using the CellTitre-Blue Cell Viability Assay kit (Promega, USA) as per manufacturer's recommendations. HEK-293T and HUT-R5 cell lines were maintained in the presence of serial dilutions of the compounds for 4 days and treated with CellTitre-Blue reagent for 4 h at 37° C. The fluorescent signals were recorded at 530/25excision and 590/35emission using BioTek microplate reader. […]
Let's look at some compounds and their measured CC50 at 4 days.

[
  {
    "compound": "C=C(C)[C@@H]1CC[C@]2(CCNCCN3CCS(=O)(=O)CC3)CC[C@]3(C)[C@H](CC[C@@H]4[C@@]5(C)CC[C@H](OC(=O)CC(C)(C)C(=O)O)C(C)(C)[C@@H]5CC[C@]43C)[C@@H]12 [Compound 51ee]",
    "CC50 at 4 days": "> 500 nM"
  },
  {
    "compound": "C=C(C)[C@@H]1CC[C@]2(CCNCCN3CCN(Cc4ccccc4)CC3)CC[C@]3(C)[C@H](CC[C@@H]4[C@@]5(C)CC[C@H](OC(=O)CC(C)(C)C(=O)O)C(C)(C)[C@@H]5CC[C@]43C)[C@@H]12 [Compound 51hh]",
    "CC50 at 4 days": "> 500 nM"
  }
]

Next compound, CC50 at 4 days to be filled in.
So what does the record say about CC50 at 4 days for C=C(C)[C@@H]1CC[C@]2(CCNCCN3CCN(S(C)(=O)=O)CC3)CC[C@]3(C)[C@H](CC[C@@H]4[C@@]5(C)CC[C@H](OC(=O)CC(C)(C)C(=O)O)C(C)(C)[C@@H]5CC[C@]43C)[C@@H]12 [Compound 51ff] ? > 500 nM
